Assay: Stability in rat microsomes assessed as parent compound remaining after 90 mins in presence of phase 1 and 2 metabolic cofactors
Format: ADME, Microsome
Details: read-out: Stability
assay-readout: remaining at […]

Report remaining at […], nothing else, for this compound: O[C@H](C[C@H]1c2c(F)cccc2-c2cncn21)[C@H]1CC[C@H](O)CC1 [NAVOXIMOD]
> 85%

---

Assay: Cmax in dog at 50 mg/kg, po administered as single dose
Type: ADME, organism-based, Canis lupus familiaris
Parameters: dose 50 mg/kg, route oral
Conditions: in vivo
assay-readout: Cmax (ng/mL)
Write down the numeric answer in ng/mL and omit the unit.

Report Cmax, nothing else, for this compound: "O[C@H](C[C@H]1c2c(F)cccc2-c2cncn21)[C@H]1CC[C@H](O)CC1"
7860

---

Assay: AUC (0 to 12 hrs) in dog at 200 mg/kg administered twice daily for 28 days with 2 week recovery
Type: ADME, organism-based, Canis lupus familiaris
Set-up: dose 200 mg/kg, time < 12 hr
Conditions: in vivo
assay-readout: AUC at 12 h (ng·h/mL)
Write down the numeric answer in ng·h/mL and omit the unit.

Report AUC at 12 h, nothing else, for this compound: "O[C@H](C[C@H]1c2c(F)cccc2-c2cncn21)[C@H]1CC[C@H](O)CC1"
22600

---

Assay: Clearance in dog at 3 mg/kg, iv administered as single dose
Format: ADME, organism-based, Canis lupus familiaris
Settings: in vivo
assay-readout: clearance

Report clearance, nothing else, for this compound: "O[C@H](C[C@H]1c2c(F)cccc2-c2cncn21)[C@H]1CC[C@H](O)CC1"
56.1 mL/min/kg

---

Test: Oral bioavailability in dog at 5 mg/kg administered as single dose
Assay type: ADME, organism-based, Canis lupus familiaris
Details: in vivo
assay-readout: bioavailability

Report bioavailability, nothing else, for this compound: O[C@H](C[C@H]1c2c(F)cccc2-c2cncn21)[C@H]1CC[C@H](O)CC1 [NAVOXIMOD]
13.7%

---

Experiment: Clearance in Sprague-Dawley rat at 10 mg/kg, iv administered as single dose
Format: ADME, organism-based
Conditions: in vivo
assay-readout: clearance (mL/min/kg)
Write down the numeric answer in mL/min/kg and omit the unit.

Report clearance, nothing else, for this compound: "O[C@H](C[C@H]1c2c(F)cccc2-c2cncn21)[C@H]1CC[C@H](O)CC1"
44.6

---

Assay: Clearance in C57Bl6 mouse at 50 mg/kg, iv administered as single dose
Format: ADME, organism-based
Details: in vivo
assay-readout: clearance (mL/min/kg)
Write down the numeric answer in mL/min/kg and omit the unit.

Report clearance, nothing else, for this compound: O[C@H](C[C@H]1c2c(F)cccc2-c2cncn21)[C@H]1CC[C@H](O)CC1 [NAVOXIMOD]
25

---

Experiment: Half life in C57Bl6 mouse at 10 mg/kg, iv administered as single dose
Type: ADME, organism-based
Details: in vivo
assay-readout: half-life (h)
Write down the numeric answer in h and omit the unit.

Report half-life, nothing else, for this compound: "O[C@H](C[C@H]1c2c(F)cccc2-c2cncn21)[C@H]1CC[C@H](O)CC1"
3.9

---

Assay: AUC (0 to infinity) in dog at 3 mg/kg, iv administered as single dose
Type: ADME, organism-based, Canis lupus familiaris
Design: dose 3 mg/kg, time infinity, route intravenous
Details: in vivo
assay-readout: AUC(0-inf)
The reply should read as a number followed by its unit.

Report AUC(0-inf), nothing else, for this compound: "O[C@H](C[C@H]1c2c(F)cccc2-c2cncn21)[C@H]1CC[C@H](O)CC1"
901 ng·h/mL

---

Assay: Cmax in Sprague-Dawley rat at 50 mg/kg, po administered as single dose
Assay type: ADME, organism-based
Design: dose 50 mg/kg, route oral
Details: in vivo
assay-readout: Cmax (ng/mL)
Write down the numeric answer in ng/mL and omit the unit.

Report Cmax, nothing else, for this molecule: "O[C@H](C[C@H]1c2c(F)cccc2-c2cncn21)[C@H]1CC[C@H](O)CC1"
10000

---

Assay: Half life in Sprague-Dawley rat at 50 mg/kg, po administered as single dose
Assay type: ADME, organism-based
Details: in vivo
assay-readout: half-life (h)
Write down the numeric answer in h and omit the unit.

Report half-life, nothing else, for this molecule: "O[C@H](C[C@H]1c2c(F)cccc2-c2cncn21)[C@H]1CC[C@H](O)CC1"
1.06

---

Assay: Cmax in dog at 150 mg/kg, po administered as single dose
Assay type: ADME, organism-based, Canis lupus familiaris
Parameters: dose 150 mg/kg, route oral
Settings: in vivo
assay-readout: Cmax (ng/mL)
Write down the numeric answer in ng/mL and omit the unit.

Report Cmax, nothing else, for this molecule: O[C@H](C[C@H]1c2c(F)cccc2-c2cncn21)[C@H]1CC[C@H](O)CC1 [NAVOXIMOD]
40400

---

Test: Clearance in Sprague-Dawley rat at 25 mg/kg, iv administered as single dose
Format: ADME, organism-based
Conditions: in vivo
assay-readout: clearance (mL/min/kg)
Write down the numeric answer in mL/min/kg and omit the unit.

Report clearance, nothing else, for this compound: "O[C@H](C[C@H]1c2c(F)cccc2-c2cncn21)[C@H]1CC[C@H](O)CC1"
32

---

Experiment: Half life in Sprague-Dawley rat at 25 mg/kg, po administered as single dose
Format: ADME, organism-based
Details: in vivo
assay-readout: half-life
The reply should read as a number followed by its unit.

Report half-life, nothing else, for this compound: "O[C@H](C[C@H]1c2c(F)cccc2-c2cncn21)[C@H]1CC[C@H](O)CC1"
1.15 h

---

Assay: AUC (0 to infinity) in C57Bl6 mouse at 100 mg/kg, po administered as single dose
Assay type: ADME, organism-based
Design: dose 100 mg/kg, time infinity, route oral
Conditions: in vivo
assay-readout: AUC(0-inf) (ng·h/mL)
Write down the numeric answer in ng·h/mL and omit the unit.

Report AUC(0-inf), nothing else, for this compound: "O[C@H](C[C@H]1c2c(F)cccc2-c2cncn21)[C@H]1CC[C@H](O)CC1"
60200

---

Assay: Intrinsic clearance in human liver microsomes
Assay type: ADME, Microsome
Conditions: read-out: CLH
Rule: predicted hepatic clearance below 9 mL/min/kg gives 1.0. Equal to or above 9 mL/min/kg gives 0.0.

Decide: predicted hepatic clearance of O[C@H](C[C@H]1c2c(F)cccc2-c2cncn21)[C@H]1CC[C@H](O)CC1 [NAVOXIMOD] strictly below 9 mL/min/kg?
1.0

Decide: predicted hepatic clearance of "O[C@@H](C[C@H]1c2c(F)cccc2-c2cncn21)[C@H]1CC[C@H](O)CC1" strictly below 9 mL/min/kg?
1.0

Decide: predicted hepatic clearance of OC1CCC(C(O)CC2c3c(F)cccc3-c3cncn32)CC1 (stereo unspecified) strictly below 9 mL/min/kg?
1.0

Decide: predicted hepatic clearance of OC(CC1c2ccccc2-c2cncn21)C1CCCCC1 (stereo unspecified) strictly below 9 mL/min/kg?
0.0

Decide: predicted hepatic clearance of "O[C@@H](C[C@H]1c2c(F)cccc2-c2cncn21)[C@H]1CC[C@@H](O)CC1" strictly below 9 mL/min/kg?
0.0

Decide: predicted hepatic clearance of OC(CC1c2ccccc2-c2cncn21)C1CCC(F)(F)CC1 (stereo unspecified) strictly below 9 mL/min/kg?
0.0

Decide: predicted hepatic clearance of O=C(N[C@H]1CC[C@@H](C(O)CC2c3ccccc3-c3cncn32)CC1)c1ccccc1 (stereo partly specified) strictly below 9 mL/min/kg?
1.0

Decide: predicted hepatic clearance of O=C1CCC(C(O)CC2c3c(F)cccc3-c3cncn32)CC1 (stereo unspecified) strictly below 9 mL/min/kg?
0.0

Decide: predicted hepatic clearance of "O[C@H](C[C@H]1c2c(F)cccc2-c2cncn21)[C@H]1CC[C@@H](O)CC1" strictly below 9 mL/min/kg?
0.0

Decide: predicted hepatic clearance of OC(CC1c2c(F)cccc2-c2cncn21)C1CCC(F)(F)CC1 (stereo unspecified) strictly below 9 mL/min/kg?
0.0

Decide: predicted hepatic clearance of OC(CC1c2c(F)cccc2-c2cncn21)C1CCCCC1 (stereo unspecified) strictly below 9 mL/min/kg?
0.0

---

Assay: Half life in C57Bl6 mouse at 10 mg/kg, po administered as single dose
Format: ADME, organism-based
Conditions: in vivo
assay-readout: half-life (h)
Write down the numeric answer in h and omit the unit.

Report half-life, nothing else, for this molecule: "O[C@H](C[C@H]1c2c(F)cccc2-c2cncn21)[C@H]1CC[C@H](O)CC1"
1.2

---

Assay: Cmax in Sprague-Dawley rat at 25 mg/kg, po administered as single dose
Type: ADME, organism-based
Parameters: dose 25 mg/kg, route oral
Settings: in vivo
assay-readout: Cmax (ng/mL)
Write down the numeric answer in ng/mL and omit the unit.

Report Cmax, nothing else, for this compound: O[C@H](C[C@H]1c2c(F)cccc2-c2cncn21)[C@H]1CC[C@H](O)CC1 [NAVOXIMOD]
6420

---

Test: Half life in dog at 1 mg/kg, iv administered as single dose
Assay type: ADME, organism-based, Canis lupus familiaris
Settings: in vivo
assay-readout: half-life (h)
Write down the numeric answer in h and omit the unit.

Report half-life, nothing else, for this molecule: "O[C@H](C[C@H]1c2c(F)cccc2-c2cncn21)[C@H]1CC[C@H](O)CC1"
2.2
